Ref: ChEMBL document CHEMBL3822437

Assay: Antiproliferative activity against human LN18 cells after 48 hrs by MTT assay
Type: functional, cell-based
Conditions: LN-18, 48 h
pIC50: −log10 of the molar value.
Assign class by pIC50: not lower than 4 means met; lower than 4 means not met.

Example cases with answers are listed next.
> print(dat)
                                   molecule  assigned.label
1  OC[C@@H](O)[C@@H](O)[C@H](O)[C@@H](O)CN(CCc1ccccc1)C[C@H](O)[C@@H](O)[C@H](O)[C@H](O)CO         not met
2  CCCCCCCCCCCCCCCCN(CC[C@H](O)[C@H](O)CO)CC[C@H](O)[C@H](O)CO             met
3  OC[C@@H](O)[C@@H](O)[C@@H](O)CN(CCc1ccccc1)C[C@H](O)[C@H](O)[C@H](O)CO         not met

Moving on to the next molecule.
Task item: In plain terms: is recorded pIC50 at least 4 for "OC[C@@H](O)[C@@H](O)[C@H](O)CN(CCc1ccccc1)C[C@@H](O)[C@H](O)[C@H](O)CO" ?
Reply: not met

====

# Lookup of reported pIC50 keyed by entry
Assay: cells
Details: Homo sapiens, HL-60, 48 h
Description: Antiproliferative activity against human HL60 cells after 48 hrs by MTT assay
Quick note: pIC50 values are minus log10 of concentrations in mol/L.

> print(dat)
                                   compound  reported.result
1  OC[C@@H](O)[C@@H](O)[C@H](O)[C@@H](O)CN(CCc1ccccc1)C[C@H](O)[C@@H](O)[C@H](O)[C@H](O)CO             4.04

Task item: What does the record list as pIC50 for C[S+](C)[O-] [DIMETHYL SULFOXIDE] ?
Reply: 3.97

Task item: What does the record list as pIC50 for "COc1cccc2c1C(=O)c1c(O)c3c(c(O)c1C2=O)C[C@@](O)(C(=O)CO)C[C@@H]3O[C@H]1C[C@H](N)[C@H](O)[C@H](C)O1" ?
Reply: 5.26

Task item: What does the record list as pIC50 for "CCCCCCCCCCCCCCCCN(CC[C@@H](O)[C@H](O)[C@H](O)CO)CC[C@@H](O)[C@H](O)[C@H](O)CO" ?
Reply: 5.18

Task item: What does the record list as pIC50 for "OC[C@@H](O)[C@@H](O)[C@H](O)CN(CCc1ccccc1)C[C@@H](O)[C@H](O)[C@H](O)CO" ?
Reply: 3.92

====

Assay: Antiproliferative activity against human LN18 cells after 48 hrs by MTT assay
Type: functional, cell-based
Conditions: LN-18, 48 h
property: pIC50
Quick note: pIC50 values are minus log10 of concentrations in mol/L.

> print(dat)
                            compound  property  reported.result
1  C[S+](C)[O-] [DIMETHYL SULFOXIDE]     pIC50             3.65

Task item: What does the record list as pIC50 for "OC[C@@H](O)[C@H](O)[C@@H](O)CN(CCc1ccccc1)C[C@H](O)[C@@H](O)[C@H](O)CO" ?
Reply: 3.59

Task item: What does the record list as pIC50 for COc1cccc2c1C(=O)c1c(O)c3c(c(O)c1C2=O)C[C@@](O)(C(=O)CO)C[C@@H]3O[C@H]1C[C@H](N)[C@H](O)[C@H](C)O1 [DOXORUBICIN] ?
Reply: 4.16

Task item: What does the record list as pIC50 for "CCCCCCCCCCCCCCCCN(CC[C@@H](O)[C@H](O)[C@H](O)CO)CC[C@@H](O)[C@H](O)[C@H](O)CO" ?
Reply: 4.30

====

Assay: cells
Conditions: Homo sapiens, HL-60, 48 h
# Lookup of reported IC50 keyed by entry
I only need the number, in µM, no unit after it.

Solved cases (2 shown):
> print(dat)
                            compound.smiles  property  unit.text  reported.result
1  OC[C@@H](O)[C@H](O)[C@@H](O)CN(CCc1ccccc1)C[C@H](O)[C@@H](O)[C@H](O)CO      IC50         µM              136
2  OC[C@@H](O)[C@@H](O)[C@@H](O)CN(CCc1ccccc1)C[C@H](O)[C@H](O)[C@H](O)CO      IC50         µM             89.4

Task item: What does the record list as IC50 for "CCCCCCCCCCCCCCCCN(CC[C@H](O)[C@H](O)CO)CC[C@H](O)[C@H](O)CO" ?
Reply: 6.44
